# Study target: CRBN (Homo sapiens (Human))
pIC50: −log10 of the molar value.
Reported metric: pIC50

CC1(c2ccc(NC(=O)OCc3cc(F)c4c(c3)C(=O)N(C3CCC(=O)NC3=O)C4)cn2)CC1 (centres unmarked); 6.00 to 7.00

Query string: Write down the reported pIC50 of Cc1ccc(NC(=O)OCc2ccc3c(c2F)C(=O)N(C2CCC(=O)NC2=O)C3)cc1Cl (centres unmarked) , test system: CRBN (Homo sapiens (Human)).
Result string: 6.00 to 7.00

---

# Study target: GSPT1 (Homo sapiens (Human), UniProt P15170+Q96SW2)
# Sequence (P15170 whole entry): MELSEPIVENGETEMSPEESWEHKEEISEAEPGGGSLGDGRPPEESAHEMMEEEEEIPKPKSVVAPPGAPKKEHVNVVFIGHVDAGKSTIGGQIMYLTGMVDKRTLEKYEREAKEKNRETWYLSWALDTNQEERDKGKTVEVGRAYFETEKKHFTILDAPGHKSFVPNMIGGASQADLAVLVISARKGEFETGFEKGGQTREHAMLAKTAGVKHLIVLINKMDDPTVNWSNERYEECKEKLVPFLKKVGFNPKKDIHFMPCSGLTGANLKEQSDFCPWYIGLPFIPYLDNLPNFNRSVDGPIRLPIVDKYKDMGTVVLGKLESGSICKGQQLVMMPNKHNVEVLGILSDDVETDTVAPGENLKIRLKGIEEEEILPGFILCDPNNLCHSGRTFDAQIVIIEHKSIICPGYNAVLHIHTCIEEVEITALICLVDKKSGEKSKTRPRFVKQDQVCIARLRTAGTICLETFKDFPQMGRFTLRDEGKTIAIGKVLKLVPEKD
# Sequence (Q96SW2 whole entry): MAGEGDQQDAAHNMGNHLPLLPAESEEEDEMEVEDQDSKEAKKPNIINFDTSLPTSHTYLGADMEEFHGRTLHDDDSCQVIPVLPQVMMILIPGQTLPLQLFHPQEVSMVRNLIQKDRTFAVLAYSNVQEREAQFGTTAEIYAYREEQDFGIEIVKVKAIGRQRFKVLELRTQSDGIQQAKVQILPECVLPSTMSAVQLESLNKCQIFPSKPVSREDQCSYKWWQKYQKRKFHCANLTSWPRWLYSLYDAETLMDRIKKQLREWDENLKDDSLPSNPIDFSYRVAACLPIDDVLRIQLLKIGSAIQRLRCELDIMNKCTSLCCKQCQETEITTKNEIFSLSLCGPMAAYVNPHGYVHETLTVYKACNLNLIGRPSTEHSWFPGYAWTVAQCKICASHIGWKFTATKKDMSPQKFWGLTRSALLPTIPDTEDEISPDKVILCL
# Sequence (Q16531 whole entry partner): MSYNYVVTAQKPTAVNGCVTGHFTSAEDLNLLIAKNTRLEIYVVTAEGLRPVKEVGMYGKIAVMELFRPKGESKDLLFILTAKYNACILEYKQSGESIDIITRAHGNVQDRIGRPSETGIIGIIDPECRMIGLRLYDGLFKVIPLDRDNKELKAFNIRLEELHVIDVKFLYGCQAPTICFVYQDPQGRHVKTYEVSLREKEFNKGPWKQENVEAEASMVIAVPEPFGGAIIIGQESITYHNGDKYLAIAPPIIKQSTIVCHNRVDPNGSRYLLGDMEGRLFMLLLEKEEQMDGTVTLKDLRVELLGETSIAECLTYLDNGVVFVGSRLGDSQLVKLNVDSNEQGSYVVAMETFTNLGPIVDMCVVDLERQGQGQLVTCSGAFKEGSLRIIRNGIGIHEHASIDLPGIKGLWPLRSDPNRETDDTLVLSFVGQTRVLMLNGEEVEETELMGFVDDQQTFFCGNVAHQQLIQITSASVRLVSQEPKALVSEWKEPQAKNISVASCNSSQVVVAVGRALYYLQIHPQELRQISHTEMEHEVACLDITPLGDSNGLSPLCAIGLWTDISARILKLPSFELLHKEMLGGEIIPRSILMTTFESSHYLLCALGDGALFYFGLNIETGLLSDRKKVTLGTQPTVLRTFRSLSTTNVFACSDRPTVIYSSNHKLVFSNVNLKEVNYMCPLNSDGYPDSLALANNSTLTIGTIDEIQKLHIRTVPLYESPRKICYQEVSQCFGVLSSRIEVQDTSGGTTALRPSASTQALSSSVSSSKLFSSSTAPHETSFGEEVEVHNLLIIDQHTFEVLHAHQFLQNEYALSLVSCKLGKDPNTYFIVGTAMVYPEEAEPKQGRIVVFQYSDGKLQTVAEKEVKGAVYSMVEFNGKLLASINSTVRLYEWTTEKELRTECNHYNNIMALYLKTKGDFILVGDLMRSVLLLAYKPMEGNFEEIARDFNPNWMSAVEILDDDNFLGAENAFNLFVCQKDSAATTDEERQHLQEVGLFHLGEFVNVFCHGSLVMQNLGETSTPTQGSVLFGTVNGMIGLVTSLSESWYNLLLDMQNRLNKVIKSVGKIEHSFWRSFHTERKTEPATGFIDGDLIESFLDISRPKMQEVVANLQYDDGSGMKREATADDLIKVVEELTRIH
# Test name: Immunofluorescence assay for GSPT1 degradation in CAL-Si cells
# Format: cell-based
# Experimental parameters: CAL-Si cells, treated 6 hours, read-out: Code, activity for GSPT1 degradation (DC50)
// DC50 lookup, one value per entry

Cc1ccc(NC(=O)OCc2cc(Cl)c3c(c2)C(=O)N(C2CCC(=O)NC2=O)C3)cc1Cl (stereo not drawn); 30 to 300 nM

Query string: Which DC50 is listed for COc1cc(COC(=O)Nc2ccc(C)c(OC(F)F)c2)cc2c1CN(C1CCC(=O)NC1=O)C2=O (stereo not drawn) ?
Result string: 30 to 300 nM

Query string: Which DC50 is listed for COc1cc(COC(=O)Nc2ccc(C)c(Cl)c2)cc2c1CN(C1CCC(=O)NC1=O)C2=O (stereo not drawn) ?
Result string: < 30 nM

Query string: Which DC50 is listed for O=C1CCC(N2Cc3c(F)cc(COC(=O)Nc4ccc(F)c(OC(F)F)c4)cc3C2=O)C(=O)N1 (stereo not drawn) ?
Result string: 30 to 300 nM

Query string: Which DC50 is listed for COc1cc(COC(=O)Nc2cccc(OC(F)F)c2)cc2c1CN(C1CCC(=O)NC1=O)C2=O (stereo not drawn) ?
Result string: < 30 nM

Query string: Which DC50 is listed for COc1cc(COC(=O)Nc2cc(-c3ccccc3)ccn2)cc2c1CN(C1CCC(=O)NC1=O)C2=O (stereo not drawn) ?
Result string: < 30 nM

Query string: Which DC50 is listed for Cc1ccc(NC(=O)OCc2ccc3c(c2F)C(=O)N(C2CCC(=O)NC2=O)C3)cc1Cl (stereo not drawn) ?
Result string: < 30 nM

Query string: Which DC50 is listed for O=C1CCC(N2Cc3c(F)cc(COC(=O)Nc4cccc(OC(F)F)c4)cc3C2=O)C(=O)N1 (stereo not drawn) ?
Result string: 30 to 300 nM

Query string: Which DC50 is listed for COc1cc(COC(=O)Nc2ccc(-c3ccccc3)nc2)cc2c1CN(C1CCC(=O)NC1=O)C2=O (stereo not drawn) ?
Result string: < 30 nM

Query string: Which DC50 is listed for COc1cc(COC(=O)Nc2ccc(-c3ccccn3)cc2)cc2c1CN(C1CCC(=O)NC1=O)C2=O (stereo not drawn) ?
Result string: < 30 nM

Query string: Which DC50 is listed for Cc1ccc(NC(=O)OCc2cc(F)c3c(c2)C(=O)N(C2CCC(=O)NC2=O)C3)cc1OC(F)F (stereo not drawn) ?
Result string: < 30 nM

---

# Study target: GSPT1 (Homo sapiens (Human), UniProt P15170+Q96SW2)
# Test name: Immunofluorescence assay for GSPT1 degradation in CAL-Si cells
# Format: cell-based
# Experimental parameters: CAL-Si cells, treated 6 hours, read-out: Code, activity for GSPT1 degradation (DC50)
// DC50 lookup, one value per entry

Query string: Which DC50 is listed for CC1(c2ccc(NC(=O)OCc3cc(F)c4c(c3)C(=O)N(C3CCC(=O)NC3=O)C4)cc2)CC1 (centres unmarked) ?
Result string: 0.03 to 0.3 µM

Query string: Which DC50 is listed for COc1cc(COC(=O)Nc2cc(Cl)c(C)cc2F)cc2c1CN(C1CCC(=O)NC1=O)C2=O (centres unmarked) ?
Result string: > 0.3 µM

Query string: Which DC50 is listed for COc1cc(COC(=O)Nc2ccc(C(C)(C)C)cc2)cc2c1CN(C1CCC(=O)NC1=O)C2=O (centres unmarked) ?
Result string: < 0.03 µM

Query string: Which DC50 is listed for COc1cc(COC(=O)Nc2cccc(OC(F)(F)F)c2)cc2c1CN(C1CCC(=O)NC1=O)C2=O (centres unmarked) ?
Result string: < 0.03 µM

Query string: Which DC50 is listed for Cc1cc(C)cc(NC(=O)OCc2cc(F)c3c(c2)C(=O)N(C2CCC(=O)NC2=O)C3)c1 (centres unmarked) ?
Result string: 0.03 to 0.3 µM

Query string: Which DC50 is listed for COc1cc(COC(=O)Nc2cc(F)cc(OC(F)(F)F)c2)cc2c1CN(C1CCC(=O)NC1=O)C2=O (centres unmarked) ?
Result string: 0.03 to 0.3 µM

Query string: Which DC50 is listed for O=C1CCC(N2Cc3c(F)cc(COC(=O)Nc4ccc(-c5ccccc5F)nc4)cc3C2=O)C(=O)N1 (centres unmarked) ?
Result string: < 0.03 µM

Query string: Which DC50 is listed for Cc1cc(F)c(NC(=O)OCc2cc(F)c3c(c2)C(=O)N(C2CCC(=O)NC2=O)C3)cc1Cl (centres unmarked) ?
Result string: 0.03 to 0.3 µM
